src = the supplement of paper PMC13380429

- System: Calu-3
- MEASUREMENT DESCRIPTION: relative viability EC50 (midpoint between 100% and the lowest measured viability); higher = less toxic
- CONDITION SUMMARY: 72 h
List of relative viability EC50 values.

{"COMPOUND": "C[n+]1ccccc1C=NO", "relative viability EC50": "> 10 µM"}
{"COMPOUND": "CC(C)(O)CS(=O)(=O)Nc1ccc2c(c1)CCN(C(=O)COc1cccnc1)C2", "relative viability EC50": "0.0828 µM"}
{"COMPOUND": "Nc1ccccc1NC(=O)c1ccc(CNc2nccc(-c3cccnc3)n2)cc1", "relative viability EC50": "0.405 µM"}
{"COMPOUND": "CC(=O)OCC1=C(C(=O)O)N2C(=O)[C@@H](NC(=O)Cc3cccs3)[C@H]2SC1", "relative viability EC50": "> 10 µM"}
{"COMPOUND": "CCCCCC(C)N (stereo not given)", "relative viability EC50": "> 10 µM"}

API: the following record is the query input.
Prompt line: Tell me measured relative viability EC50 for OCCn1cc(-c2cnc3nnn(Cc4ccc5ncccc5c4)c3n2)cn1 please.
Response line: > 10 µM

---

List of cell viability values.
- System: Caco-2
- MEASUREMENT DESCRIPTION: cell viability relative to DMSO; higher = less toxic
- CONDITION SUMMARY: 72 h; 10000 nM

{"COMPOUND": "CCCCC/C=C\\C/C=C\\C/C=C\\C/C=C\\CCCC(=O)Nc1ccc(O)cc1 [AM-404]", "MEASURED TARGET": "Caco-2", "cell viability": "95%"}

Prompt line: Tell me measured cell viability for CN1C[C@H](C(=O)N[C@]2(C)O[C@@]3(O)[C@@H]4CCCN4C(=O)[C@H](Cc4ccccc4)N3C2=O)C[C@@H]2c3cccc4[nH]cc(c34)C[C@H]21 [dihydroergotamine] please.
Response line: 99.7%

Prompt line: Tell me measured cell viability for COc1nccc(-c2c(-c3ccc(F)cc3)ncn2C2CCNCC2)n1 please.
Response line: 87.8%

Prompt line: Tell me measured cell viability for CC1(C)CCC(C)(C)c2cc(Cn3cccn3)c(/C=C/c3ccc(C(=O)O)cc3)cc21 [palovarotene] please.
Response line: 92.9%

Prompt line: Tell me measured cell viability for CC(C)=CCC[C@](C)(O)[C@H]1CC[C@]2(C)[C@@H]1[C@H](O)C[C@@H]1[C@@]3(C)CC[C@H](O)C(C)(C)[C@@H]3CC[C@]12C [S-111] please.
Response line: 99.8%

Prompt line: Tell me measured cell viability for O=C(C=Cc1ccccc1)NC(NC(=S)Nc1ccc(Cl)cc1)C(Cl)(Cl)Cl (configuration not stated) [sal003] please.
Response line: 74.1%

Prompt line: Tell me measured cell viability for CNC(=O)[C@@H](NC(=O)[C@H](CC(C)C)[C@H](O)C(=O)NO)C(C)(C)C [marimastat] please.
Response line: 70.5%

---

- Tested on: HepG2
- MEASUREMENT DESCRIPTION: cell viability relative to DMSO; higher = less toxic
- CONDITION SUMMARY: 72 h; 10 nM
List of cell viability values.
Give the value in % but do not write % after it.

Check out these entries, answers already filled in.
{"COMPOUND": "Cn1cc(-c2ccc(F)c(C(F)(F)F)c2)nc1C1CCN(c2ncnc3[nH]ncc23)CC1", "READOUT UNIT": "%", "cell viability": 97.8}
{"COMPOUND": "O=P(O)(NCCCl)NCCCl [palifosfamide]", "READOUT UNIT": "%", "cell viability": 102}
{"COMPOUND": "CC(=O)c1c(C)c2cnc(Nc3ccc(N4CCNCC4)cn3)nc2n(C2CCCC2)c1=O", "READOUT UNIT": "%", "cell viability": 88.5}
{"COMPOUND": "Cc1ccc(N2CCN(CC[C@H]3NC(=O)c4ccccc43)CC2)cc1C", "READOUT UNIT": "%", "cell viability": 96.1}
{"COMPOUND": "CCCCCCOc1ccccc1C(N)=O [exalamide]", "READOUT UNIT": "%", "cell viability": 96.1}

Prompt line: Return reported cell viability for target or system HepG2, item CO[C@H](C(=O)[C@@H](O)[C@@H](C)O)[C@@H]1Cc2cc3cc(O[C@H]4C[C@@H](O[C@H]5C[C@@H](O)[C@H](O)[C@@H](C)O5)[C@@H](O)[C@@H](C)O4)c(C)c(O)c3c(O)c2C(=O)[C@H]1O[C@H]1C[C@@H](O[C@H]2C[C@@H](O[C@H]3C[C@](C)(O)[C@H](O)[C@@H](C)O3)[C@H](O)[C@@H](C)O2)[C@H](O)[C@@H](C)O1 .
Response line: 99.9

Prompt line: Return reported cell viability for target or system HepG2, item CC(=O)OCC1=C(C(=O)O)N2C(=O)[C@@H](NC(=O)Cc3cccs3)[C@H]2SC1 .
Response line: 102

---

- Tested on: A549-ACE2
- MEASUREMENT DESCRIPTION: drug-induced phospholipidosis relative to tamoxifen; higher = more phospholipidosis
- CONDITION SUMMARY: 0.3 µM; 48 h
QUANTITY: drug-induced phospholipidosis (%)
Give the value in % but do not write % after it.

Prompt line: Tell me measured drug-induced phospholipidosis for C=C1C(=O)O[C@@H]2[C@H]3O[C@]3(C)CC/C=C(\C)CC[C@@H]12 [parthenolide-(alternate-stereo)] please.
Response line: 1.04

Prompt line: Tell me measured drug-induced phospholipidosis for CC(=O)N(O)[C@@H]1c2cc(C#N)ccc2OC(C)(C)[C@H]1O please.
Response line: 5.86

Prompt line: Tell me measured drug-induced phospholipidosis for c1ccc(-c2ccc(C(c3ccccc3)n3ccnc3)cc2)cc1 (centres undefined) please.
Response line: 3.19

Prompt line: Tell me measured drug-induced phospholipidosis for O=C(c1ccc(/C=C/c2n[nH]c3ccccc23)cc1)N1CCNCC1 please.
Response line: -1.26

---

- Test system: HepG2
- MEASUREMENT DESCRIPTION: cell viability relative to DMSO; higher = less toxic
- CONDITION SUMMARY: 72 h; 10 nM
QUANTITY: cell viability (%)
Give the value in % but do not write % after it.

Check out these entries, answers already filled in.
{"MOLECULE": "CC(C)[C@@]1(NC(=O)[C@@H]2C[C@@H]3c4cccc5[nH]cc(c45)C[C@H]3N(C)C2)O[C@@]2(O)[C@@H]3CCCN3C(=O)[C@H](Cc3ccccc3)N2C1=O [dihydroergocristine]", "QUANTITY": "cell viability", "RECORDED VALUE": 95.1}
{"MOLECULE": "Sc1nc2ccccc2s1 [benzo[d]thiazole-2(3H)-thione]", "QUANTITY": "cell viability", "RECORDED VALUE": 101}
{"MOLECULE": "Cc1cc(Oc2ccc3nc(COc4ccc(CC5SC(=O)NC5=O)cc4)n(C)c3c2)cc(C)c1N (centres undefined)", "QUANTITY": "cell viability", "RECORDED VALUE": 99.5}

Prompt line: Tell me measured cell viability for CC(O)(P(=O)(O)O)P(=O)(O)O please.
Response line: 105

---

- Tested on: Caco-2
- MEASUREMENT DESCRIPTION: cell viability relative to DMSO; higher = less toxic
- CONDITION SUMMARY: 72 h; 10000 nM
Hi! Just check whether cell viability is below 80%. Below gives satisfied, equal or above gives not satisfied.

Example results:
{"COMPOUND": "C=C1/C(=C\\C=C2/CCC[C@]3(C)[C@@H]([C@H](C)/C=C/[C@@H](O)C4CC4)CC[C@@H]23)C[C@@H](O)C[C@@H]1O", "ASSIGNED LABEL": "not satisfied"}
{"COMPOUND": "COc1ccc2cc(-c3nc(-c4ccc([S+](C)[O-])cc4)[nH]c3-c3ccncc3)ccc2c1 (stereo unspecified)", "ASSIGNED LABEL": "not satisfied"}
{"COMPOUND": "COc1ccccc1C1(O)CCN(CCCn2c3ccccc3c3ccccc32)CC1", "ASSIGNED LABEL": "satisfied"}
{"COMPOUND": "CC1C(=O)OC2C(O)C34C5CC(C(C)(C)C)C36C(OC(=O)C6O)OC4(C(=O)O5)C12O (stereo unspecified) [ginkgolide-B]", "ASSIGNED LABEL": "not satisfied"}
{"COMPOUND": "NC(=O)c1nc(F)cnc1O", "ASSIGNED LABEL": "not satisfied"}

Prompt line: API: query returns whether the compound falls strictly under 80% in cell viability. Query: COc1ccc(CC(=O)NC(/N=C(\NC#N)Nc2cccc3ncccc23)C(C)(C)C)cc1OC (stereo unspecified)
Response line: not satisfied

---

- Test system: Caco-2
- MEASUREMENT DESCRIPTION: relative viability EC50 (midpoint between 100% and the lowest measured viability); higher = less toxic
- CONDITION SUMMARY: 72 h
List of relative viability EC50 values.

Check out these entries, answers already filled in.
{"COMPOUND": "CC(=O)NCCNc1cc(Cl)nn2c(-c3cccc(S(=O)(=O)N(C)C)c3)c(C)nc12", "relative viability EC50": "> 10 µM"}
{"COMPOUND": "c1ccc([C@@H]2C[C@H]2NC2CCNCC2)cc1", "relative viability EC50": "> 10 µM"}
{"COMPOUND": "NCCNS(=O)(=O)c1ccc(Cl)c2ccncc12", "relative viability EC50": "> 10 µM"}

Prompt line: Return reported relative viability EC50 for target or system Caco-2, item N[C@@H](C(=O)N[C@@H]1C(=O)N2C(C(=O)O)=C(Cl)CC[C@H]12)c1ccccc1 .
Response line: > 10 µM

Prompt line: Return reported relative viability EC50 for target or system Caco-2, item CC(C)c1ccc(C(=O)N=C(N)N)cc1S(C)(=O)=O [cariporide] .
Response line: > 10 µM
